# protocolNotes: AUC (0 to 24 hrs) in BALB/c RAG2-/- gammaC-/- mouse at 10 mg/kg, ip using 80% saline 10% Tween20 and 10% DMSO formulation measured up to 24 hrs by UPLC-triple quadrupole MS analysis
# Assay type: ADME, organism-based
# Set-up: route intraperitoneal, dose 10 mg/kg, time <=24
# studyConditions: in vivo
metric: AUC(0-t) (µM·h)

                             compoundsmiles  scaleunit  endpointresult
0  COc1cc2nc(-c3ccc(C)o3)cc(NCC3CCN(c4ncc(C(=O)NO)cn4)CC3)c2cc1OC       µM·h           0.916

* * *

# targetSystem: Histone deacetylase 3/Nuclear receptor corepressor 2 (HDAC3/NCoR2) (Homo sapiens)
# Sequence (O15379 whole entry): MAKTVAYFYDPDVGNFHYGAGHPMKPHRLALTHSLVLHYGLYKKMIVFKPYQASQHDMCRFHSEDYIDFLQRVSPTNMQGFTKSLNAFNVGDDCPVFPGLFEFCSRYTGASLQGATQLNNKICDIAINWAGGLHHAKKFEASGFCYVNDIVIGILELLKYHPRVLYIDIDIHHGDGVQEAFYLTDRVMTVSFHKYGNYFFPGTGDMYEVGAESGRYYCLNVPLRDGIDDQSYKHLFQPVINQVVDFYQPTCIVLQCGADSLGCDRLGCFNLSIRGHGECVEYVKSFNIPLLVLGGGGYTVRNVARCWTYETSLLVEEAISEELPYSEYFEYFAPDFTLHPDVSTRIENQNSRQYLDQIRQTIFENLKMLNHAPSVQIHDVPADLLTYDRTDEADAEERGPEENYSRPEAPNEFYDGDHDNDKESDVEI
# Sequence (Q9Y618 whole entry, further chain): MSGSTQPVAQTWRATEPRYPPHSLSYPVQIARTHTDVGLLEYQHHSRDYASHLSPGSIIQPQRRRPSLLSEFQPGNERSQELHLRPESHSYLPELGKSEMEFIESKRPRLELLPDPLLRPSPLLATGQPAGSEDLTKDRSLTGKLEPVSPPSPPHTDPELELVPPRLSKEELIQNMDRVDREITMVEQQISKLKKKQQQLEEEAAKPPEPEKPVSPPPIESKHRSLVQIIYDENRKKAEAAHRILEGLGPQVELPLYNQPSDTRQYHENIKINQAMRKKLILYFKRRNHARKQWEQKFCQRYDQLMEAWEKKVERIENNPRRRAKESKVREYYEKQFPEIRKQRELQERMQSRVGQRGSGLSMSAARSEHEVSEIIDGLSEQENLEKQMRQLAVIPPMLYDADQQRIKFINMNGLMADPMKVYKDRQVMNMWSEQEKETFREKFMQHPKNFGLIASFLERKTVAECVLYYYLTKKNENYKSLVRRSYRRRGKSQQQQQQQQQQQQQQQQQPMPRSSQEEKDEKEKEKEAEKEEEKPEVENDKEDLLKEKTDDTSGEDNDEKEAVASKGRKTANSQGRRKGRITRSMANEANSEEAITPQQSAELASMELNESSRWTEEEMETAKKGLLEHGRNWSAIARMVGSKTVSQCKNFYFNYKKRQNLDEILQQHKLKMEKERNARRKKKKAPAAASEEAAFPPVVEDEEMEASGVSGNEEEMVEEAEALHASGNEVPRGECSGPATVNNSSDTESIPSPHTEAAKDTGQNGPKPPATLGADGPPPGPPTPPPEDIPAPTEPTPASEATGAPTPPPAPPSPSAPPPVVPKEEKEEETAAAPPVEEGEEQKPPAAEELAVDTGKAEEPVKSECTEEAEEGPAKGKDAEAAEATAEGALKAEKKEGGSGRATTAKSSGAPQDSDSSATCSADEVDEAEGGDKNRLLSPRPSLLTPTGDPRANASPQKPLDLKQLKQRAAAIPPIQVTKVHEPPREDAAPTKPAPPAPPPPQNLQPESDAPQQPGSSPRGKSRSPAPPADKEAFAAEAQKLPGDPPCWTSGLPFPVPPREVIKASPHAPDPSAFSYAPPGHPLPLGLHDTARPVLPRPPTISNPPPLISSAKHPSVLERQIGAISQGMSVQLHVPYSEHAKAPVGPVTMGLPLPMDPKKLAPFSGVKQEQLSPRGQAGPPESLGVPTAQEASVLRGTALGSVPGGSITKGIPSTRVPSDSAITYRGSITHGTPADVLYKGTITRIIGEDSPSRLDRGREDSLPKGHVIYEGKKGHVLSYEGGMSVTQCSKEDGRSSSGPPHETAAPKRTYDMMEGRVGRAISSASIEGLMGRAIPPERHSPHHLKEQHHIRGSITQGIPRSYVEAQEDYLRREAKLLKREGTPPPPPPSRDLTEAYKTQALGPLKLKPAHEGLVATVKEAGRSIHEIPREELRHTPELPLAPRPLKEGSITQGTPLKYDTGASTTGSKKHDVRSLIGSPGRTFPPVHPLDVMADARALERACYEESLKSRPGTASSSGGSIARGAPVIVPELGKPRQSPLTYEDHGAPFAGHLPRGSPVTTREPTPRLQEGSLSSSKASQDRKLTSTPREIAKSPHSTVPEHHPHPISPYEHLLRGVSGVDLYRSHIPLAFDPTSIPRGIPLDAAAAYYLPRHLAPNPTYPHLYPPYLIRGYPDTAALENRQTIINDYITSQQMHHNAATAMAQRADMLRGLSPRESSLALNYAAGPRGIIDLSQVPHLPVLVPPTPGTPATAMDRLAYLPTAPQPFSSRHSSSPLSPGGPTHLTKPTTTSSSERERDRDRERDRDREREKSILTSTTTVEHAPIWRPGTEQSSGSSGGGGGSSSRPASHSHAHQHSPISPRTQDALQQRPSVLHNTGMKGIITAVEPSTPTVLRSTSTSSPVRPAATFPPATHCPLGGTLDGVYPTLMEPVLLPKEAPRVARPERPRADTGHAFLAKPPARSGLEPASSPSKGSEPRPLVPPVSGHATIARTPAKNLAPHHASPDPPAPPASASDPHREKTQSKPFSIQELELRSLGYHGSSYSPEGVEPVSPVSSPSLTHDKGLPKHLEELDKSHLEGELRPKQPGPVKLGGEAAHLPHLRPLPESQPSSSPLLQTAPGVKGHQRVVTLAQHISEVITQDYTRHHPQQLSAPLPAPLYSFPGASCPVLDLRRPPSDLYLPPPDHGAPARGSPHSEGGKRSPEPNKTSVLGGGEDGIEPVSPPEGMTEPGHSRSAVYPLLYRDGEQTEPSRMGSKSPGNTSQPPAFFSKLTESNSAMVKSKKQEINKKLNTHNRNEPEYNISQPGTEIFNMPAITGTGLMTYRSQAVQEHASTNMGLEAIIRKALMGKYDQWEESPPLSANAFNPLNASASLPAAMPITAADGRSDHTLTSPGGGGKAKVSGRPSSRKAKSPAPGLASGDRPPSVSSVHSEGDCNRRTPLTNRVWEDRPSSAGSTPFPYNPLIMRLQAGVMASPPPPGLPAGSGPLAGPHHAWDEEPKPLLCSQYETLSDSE
# protocolNotes: Inhibition of full length human C-terminal His-tagged HDAC3/human N-terminal GST-agged NCOR2 using fluorogenic acetylated peptide as substrate incubated for 30 mins by fluorescence plate reader assay
# Type: protein-complex assay
pIC50: −log10 of the molar value.
metric: pIC50

>>> df
                             compoundsmiles  endpointresult
0  COc1cc2c(NCC3CCN(C)CC3)cc(-c3ccc(C)o3)nc2cc1OCCCN1CCCC1          < 5.00
1  COc1cc2c(NC3CCN(C)CC3)cc(-c3ccc(C)o3)nc2cc1OCCCN1CCCC1          < 5.00
2  COc1cc2nc(-c3ccc(C)o3)cc(NCc3ccc(C(=O)NO)cc3)c2cc1OC            7.36

* * *

# System: THLE-2
# protocolNotes: Cytotoxicity against human THLE-2 cells assessed as decrease in cell viability measured after 72 hrs by Vialight-plus cell proliferation assay
# Type: cell-based
# studyConditions: thle-2, 72 h
Listed here are molecules together with their documented LC50.
metric: LC50 (µM)

In [3]: df
Out[3]:
                                   molecule  endpointresult
0  COc1cc2c(NCc3ccc(-c4ccc(C(=O)NO)cc4)cc3)cc(-c3ccc(C)o3)nc2cc1OCCCN1CCCC1            13.5
1  COc1cc2c(NC3CCN(c4ccc(C(=O)NO)cc4)CC3)cc(-c3ccc(C)o3)nc2cc1OCCCN1CCCC1           6.656
2  COc1cc2nc(-c3ccc(C)o3)cc(NCc3ccc(C(=O)NO)cc3)c2cc1OC            2.33
3  COc1cc2nc(-c3ccc(C)o3)cc(NCC3C4CCC3CN(c3ncc(C(=O)NO)cn3)C4)c2cc1OC (stereo not given)            1.35
4  COc1cc2c(NCc3ccc(C(=O)NO)cc3)cc(-c3ccc(C)o3)nc2cc1OCCCN1CCCC1            11.3

* * *

pIC50: −log10 of the molar value.
# Histone deacetylase 1 (Homo sapiens, UniProt Q13547): pIC50 values follow
# Sequence (Q13547 whole entry): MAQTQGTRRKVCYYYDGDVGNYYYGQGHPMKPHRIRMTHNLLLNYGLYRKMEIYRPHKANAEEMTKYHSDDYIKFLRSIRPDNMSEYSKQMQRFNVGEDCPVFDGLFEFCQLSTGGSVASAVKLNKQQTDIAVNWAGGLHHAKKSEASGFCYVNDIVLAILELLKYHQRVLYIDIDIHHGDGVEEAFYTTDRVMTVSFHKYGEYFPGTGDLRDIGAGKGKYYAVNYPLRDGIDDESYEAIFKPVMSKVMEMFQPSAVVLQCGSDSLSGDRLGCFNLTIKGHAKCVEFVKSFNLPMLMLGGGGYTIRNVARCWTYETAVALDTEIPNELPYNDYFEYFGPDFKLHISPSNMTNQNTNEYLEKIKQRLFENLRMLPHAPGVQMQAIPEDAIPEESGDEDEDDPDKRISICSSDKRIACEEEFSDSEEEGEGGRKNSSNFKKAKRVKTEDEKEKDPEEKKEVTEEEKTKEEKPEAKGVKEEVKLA
metric: pIC50

In [3]: df
Out[3]:
                                   molecule                              targetsystem  endpointresult
0  COc1cc2c(NCC3CCN(C)CC3)cc(-c3ccc(C)o3)nc2cc1OCCCN1CCCC1  Histone deacetylase 1 (Homo sapiens, UniProt Q13547)          < 5.00
1  COc1cc2c(NCC3CCN(C4CCC(C(=O)NO)CC4)CC3)cc(-c3ccc(C)o3)nc2cc1OCCCN1CCCC1 (stereo not drawn)  Histone deacetylase 1 (Homo sapiens, UniProt Q13547)          < 4.70
2  COc1cc2c(NC3CCN(C)CC3)cc(-c3ccc(C)o3)nc2cc1OCCCN1CCCC1  Histone deacetylase 1 (Homo sapiens, UniProt Q13547)          < 5.00

* * *

# Test system: MM1.S
# protocolNotes: Antiproliferative activity against human MM1.S cells assessed as inhibition of cell proliferation measured up to 72 hrs by CellTiter96 Aqueous one reagent based assay
# Assay type: functional
# studyConditions: time hrs <=72, read-out: pGI50 (converted)
metric: GI50 (µM)

In [3]: df
Out[3]:
                                   molecule  readoutqualifier  endpointresult
0  COc1cc2c(NC3CCN(Cc4ccc(C(=O)NO)cc4)CC3)cc(-c3ccc(C)o3)nc2cc1OCCCN1CCCC1                 =            4.17
1  COc1cc2nc(-c3ccc(C)o3)cc(NC3CCN(c4ncc(C(=O)NO)cn4)CC3)c2cc1OC                 =            1.02
2  COc1cc2nc(-c3ccc(C)o3)cc(NCC3CCN(c4ncc(C(=O)NO)cn4)CC3)c2cc1OC                 =          0.0316
3  COc1cc2c(NCc3ccc(-c4ccc(C(=O)NO)cc4)cc3)cc(-c3ccc(C)o3)nc2cc1OCCCN1CCCC1                 =            1.82
4  COc1cc2nc(-c3ccc(C)o3)cc(NCC3CCC(C(=O)NO)CC3)c2cc1OC (configuration not stated)                 =            5.75
5  COc1cc2c(NCC3CCN(c4ccc(C(=O)NO)cc4)CC3)cc(-c3ccc(C)o3)nc2cc1OCCCN1CCCC1                 =            3.72
6  COc1cc2c(NCC3CCN(c4ncc(C(=O)NO)cn4)CC3)cc(C)nc2cc1OCCCN1CCCC1                 >              10

* * *

# protocolNotes: Permeability of the compound in PBS/EtOH buffer (70:30) incubated for 18 hrs by UV plate reader based PAMPA assay
# Format: ADME
# studyConditions: read-out: permeability
Field 'label' (enum: label 1 / label 0). Set to label 1 when Papp at 18 h is strictly under 0.5 ×10⁻⁶ cm/s; else label 0.

>>> print(df.to_string())
                                    compound  classlabel
 0  COc1cc2c(NCc3ccc(C(=O)NO)cc3)cc(-c3ccc(C)o3)nc2cc1OCCCN1CCCC1     label 1
 1  COc1cc2nc(-c3ccc(C)o3)cc(NCc3ccc(C(=O)NO)cc3)c2cc1OC     label 0
 2  COc1cc2nc(-c3ccc(C)o3)cc(NC3CCN(c4ncc(C(=O)NO)cn4)CC3)c2cc1OC     label 0
 3  COc1cc2nc(-c3ccc(C)o3)cc(NCC3CCN(Cc4ccc(C(=O)NO)s4)CC3)c2cc1OC     label 1
 4  COc1cc2c(NC3CCN(c4ncc(C(=O)NO)cn4)CC3)cc(C)nc2cc1OCCCN1CCCC1     label 1
 5  COc1cc2nc(C3CCCCC3)cc(NCC3CCN(c4ncc(C(=O)NO)cn4)CC3)c2cc1OC     label 1
 6  COc1cc2nc(-c3ccc(C)o3)cc(NCC3CCN(Cc4ccc(C(=O)NO)cc4)CC3)c2cc1OC     label 0
 7  COc1cc2nc(-c3ccc(C)o3)cc(NCC3CCN(C4CC(C(=O)NO)C4)CC3)c2cc1OC (stereo not drawn)     label 1
 8  Cc1[nH]c2ccccc2c1CCNCc1ccc(/C=C/C(=O)NO)cc1     label 0
 9  COc1cc2c(NCC3CCN(c4ncc(C(=O)NO)cn4)CC3)cc(-c3ccc(C)o3)nc2cc1OCC1CCNCC1     label 1
10  COc1cc2nc(-c3ccc(C)o3)cc(NCC3C4CCC3CN(c3ncc(C(=O)NO)cn3)C4)c2cc1OC (stereo not drawn)     label 0
11  COc1cc2c(NCC3CCN(c4ccc(C(=O)NO)cc4)CC3)cc(-c3ccc(C)o3)nc2cc1OCCCN1CCCC1     label 1

* * *

pIC50: −log10 of the molar value.
# DNA (cytosine-5)-methyltransferase 1 (Homo sapiens, UniProt P26358): pIC50 values follow
# Sequence (P26358 whole entry): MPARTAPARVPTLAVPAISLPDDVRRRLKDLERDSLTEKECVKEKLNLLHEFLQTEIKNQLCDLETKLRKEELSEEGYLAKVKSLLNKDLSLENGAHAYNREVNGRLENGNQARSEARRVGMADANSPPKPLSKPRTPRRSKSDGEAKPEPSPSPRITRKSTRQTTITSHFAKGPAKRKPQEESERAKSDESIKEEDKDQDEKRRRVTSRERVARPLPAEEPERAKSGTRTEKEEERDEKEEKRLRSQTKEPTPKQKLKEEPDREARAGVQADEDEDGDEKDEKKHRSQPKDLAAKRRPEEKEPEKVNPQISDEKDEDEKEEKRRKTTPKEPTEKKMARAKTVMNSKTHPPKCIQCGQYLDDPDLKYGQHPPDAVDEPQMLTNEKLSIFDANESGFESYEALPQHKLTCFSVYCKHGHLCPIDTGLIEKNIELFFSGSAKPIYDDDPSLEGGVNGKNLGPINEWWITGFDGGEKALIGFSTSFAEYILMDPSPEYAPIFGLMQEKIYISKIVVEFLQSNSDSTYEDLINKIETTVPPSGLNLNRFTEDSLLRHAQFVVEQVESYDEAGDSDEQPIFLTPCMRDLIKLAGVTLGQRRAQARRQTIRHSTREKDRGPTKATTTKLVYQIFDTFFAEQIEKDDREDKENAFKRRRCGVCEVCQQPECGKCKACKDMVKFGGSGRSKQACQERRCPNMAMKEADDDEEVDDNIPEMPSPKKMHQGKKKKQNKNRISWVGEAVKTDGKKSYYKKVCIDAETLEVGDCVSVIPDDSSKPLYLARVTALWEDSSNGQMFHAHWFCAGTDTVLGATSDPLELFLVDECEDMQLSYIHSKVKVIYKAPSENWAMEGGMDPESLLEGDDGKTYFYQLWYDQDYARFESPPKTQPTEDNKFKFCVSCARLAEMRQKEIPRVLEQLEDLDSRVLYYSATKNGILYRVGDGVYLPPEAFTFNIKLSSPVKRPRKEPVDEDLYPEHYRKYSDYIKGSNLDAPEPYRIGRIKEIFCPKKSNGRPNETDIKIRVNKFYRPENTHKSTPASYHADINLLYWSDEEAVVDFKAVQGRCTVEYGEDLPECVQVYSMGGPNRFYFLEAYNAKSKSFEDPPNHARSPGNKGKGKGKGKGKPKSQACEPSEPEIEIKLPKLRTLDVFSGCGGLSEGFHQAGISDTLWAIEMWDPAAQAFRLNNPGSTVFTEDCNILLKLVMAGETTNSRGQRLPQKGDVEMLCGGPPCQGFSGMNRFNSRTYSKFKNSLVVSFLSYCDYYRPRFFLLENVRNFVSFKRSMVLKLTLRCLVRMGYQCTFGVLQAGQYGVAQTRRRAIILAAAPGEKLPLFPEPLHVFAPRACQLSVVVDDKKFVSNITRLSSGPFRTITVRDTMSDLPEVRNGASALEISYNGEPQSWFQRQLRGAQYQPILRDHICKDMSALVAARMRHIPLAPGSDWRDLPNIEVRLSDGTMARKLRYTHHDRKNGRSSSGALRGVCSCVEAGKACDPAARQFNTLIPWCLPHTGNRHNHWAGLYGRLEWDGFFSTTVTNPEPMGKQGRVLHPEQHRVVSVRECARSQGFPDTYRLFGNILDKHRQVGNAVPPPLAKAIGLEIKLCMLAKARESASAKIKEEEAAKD
metric: pIC50

In [3]: df
Out[3]:
                                    compound  metric  readoutqualifier  endpointresult
 0  COc1cc2c(NC3CCN(c4ccc(C(=O)NO)cc4)CC3)cc(-c3ccc(C)o3)nc2cc1OCCCN1CCCC1   pIC50                 =            6.16
 1  COc1cc2nc(-c3ccc(C)o3)cc(NCc3ccc(C(=O)NO)cc3)c2cc1OC   pIC50                 =            5.27
 2  COc1cc2nc(C3CCCCC3)cc(NCC3CCN(c4ncc(C(=O)NO)cn4)CC3)c2cc1OC   pIC50                 <            5.00
 3  COc1cc2nc(-c3ccc(C)o3)cc(NC3CCN(c4ncc(C(=O)NO)cn4)CC3)c2cc1OC   pIC50                 =            5.15
 4  COc1cc2c(NCC3CCN(Cc4ccc(C(=O)NO)cc4)CC3)cc(-c3ccc(C)o3)nc2cc1OCCCN1CCCC1   pIC50                 =            6.78
 5  COc1cc2nc(-c3ccc(C)o3)cc(NCC3CCN(C4CC(C(=O)NO)C4)CC3)c2cc1OC (centres undefined)   pIC50                 =            6.27
 6  COc1cc2nc(N3CCCCC3)cc(NCC3CCN(c4ncc(C(=O)NO)cn4)CC3)c2cc1OC   pIC50                 <            5.00
 7  COc1cc2nc(-c3ccc(C)s3)cc(NCC3CCN(c4ncc(C(=O)NO)cn4)CC3)c2cc1OC   pIC50                 <            5.00
 8  COc1cc2c(NCc3ccc(C(=O)NO)cc3)cc(-c3ccc(C)o3)nc2cc1OCCCN1CCCC1   pIC50                 =            6.10
 9  COc1cc2c(NCC3CCN(c4ncc(C(=O)NO)cn4)CC3)cc(-c3ccc(C)o3)nc2cc1OCCCN1CCCC1   pIC50                 =            5.94
10  COc1cc2c(NC3CCN(Cc4ccc(C(=O)NO)cc4)CC3)cc(-c3ccc(C)o3)nc2cc1OCCCN1CCCC1   pIC50                 =            6.50
11  COc1cc2c(NCC3CCN(c4ncc(C(=O)NO)cn4)CC3)cc(C)nc2cc1OCCCN1CCCC1   pIC50                 =            6.26
12  COc1cc2nc(-c3ccccc3)cc(NCC3CCN(c4ncc(C(=O)NO)cn4)CC3)c2cc1OC   pIC50                 <            5.00
13  COc1cc2c(NCc3ccc([C@H]4CC[C@@H](C(=O)NO)CC4)cc3)cc(-c3ccc(C)o3)nc2cc1OCCCN1CCCC1   pIC50                 =            5.84
14  COc1cc2c(NCC3CCN(c4ncc(C(=O)NO)cn4)CC3)cc(-c3ccc(C)o3)nc2cc1OCC1CCNCC1   pIC50                 =            5.94
15  COc1cc2nc(-c3ccc(C)o3)cc(NCC3CCN(c4ccc(C(=O)NO)cn4)CC3)c2cc1OC   pIC50                 =            5.08
16  COc1cc2nc(-c3ccc(C)o3)cc(NCC3CCN(Cc4ccc(C(=O)NO)s4)CC3)c2cc1OC   pIC50                 =            6.49
17  COc1cc2c(NCc3ccc(-c4ccc(C(=O)NO)cc4)cc3)cc(-c3ccc(C)o3)nc2cc1OCCCN1CCCC1   pIC50                 =            5.59
18  COc1cc2c(NCC3CCN(c4ccc(C(=O)NO)cc4)CC3)cc(-c3ccc(C)o3)nc2cc1OCCCN1CCCC1   pIC50                 =            6.38
